Test system: MDA-MB-435
Experiment: NCI tumour cell line growth inhibition, 48 h
Activity calls are given as the source filed them. Rule as the data show it: active = GI50 up to about 1.1 µM and inactive = higher.
# output must be one of active, inactive

Before answering, review these 10 worked examples.
Molecule	Assigned category
CCOC(=O)c1c(-c2ccc(Cl)cc2)c(C#N)c(=S)n(C2OC(COC(C)=O)C(OC(C)=O)C(OC(C)=O)C2OC(C)=O)c1-c1ccccc1 (centres undefined)	inactive
O=S(=O)(SC1=NCCN1)c1ccc2ccccc2c1	inactive
COc1ccccc1/C=C/C1=NN(c2cccc(S(=O)(=O)O)c2)C2(C1)SCC(=O)N2c1nc2ccccc2s1 (centres undefined)	inactive
O=C(O)c1ccc(NC(c2ccccc2)c2ccc3cccnc3c2O)cc1 (centres undefined)	inactive
Cc1ccc2c(c1)c1ccc3c(c1n2C)C(=O)C=CC3=O	inactive
CC(=O)Nc1cc(C(=O)Nc2cc(C(=O)N3CC(CCl)c4c3cc(N)c3ccccc43)nn2C)nn1C (centres undefined)	active
COC(=O)C1=Nc2c(C)nn(-c3ccccc3)c2N=C(c2ccc(C)cc2)C1	inactive
CC(C)C1CC[C@H](C)C[C@@H]1OC(=O)C(C(=O)O[C@H]1C[C@@H](C)CCC1C(C)C)C(O)[C@@H]1OC(C)(C)O[C@H]1C1COC(C)(C)O1 (some centres undefined)	inactive
CC(=O)NNc1nc(-c2ccc([N+](=O)[O-])cc2)c(C#N)c(=O)n1C	inactive
COc1ccc2cc(CNCCCCCCCCNCc3ccc4cc(OC)ccc4c3)ccc2c1	inactive

# input for lookup
QUERY: Per the assay record, what outcome was assigned to NC(=O)/N=C1\NCCC(=O)N1CCc1c[nH]c2ccccc12 ?
RESULT: inactive

###

System: RPMI-8226
Experiment: NCI tumour cell line growth inhibition, 48 h
The source made the active and inactive calls. No stated cut-off is given here; in the data, active = GI50 up to about 1.1 µM and inactive = higher.
Give your call using only these classes: 1.0 (active), 0.0 (inactive)

Molecule	Assigned category
CN(C)N1C(=O)CC2(CCN(CCCC(=O)c3ccc(F)cc3)CC2)C1=O	0.0
Cc1ccc(Cc2cc(N3CCN(c4cccc(Cl)c4)CC3)nnc2C)cc1	0.0
CC12CCC(C(Br)(Br)C1=O)C2(C)C (stereo not drawn)	1.0
C[n+]1c2ccccc2c(C(=O)NC(CCCNC(=N)N)C(=O)O)c2ccccc21 (stereo not drawn)	0.0
COc1cc2c(cc1OC)C(=O)/C(=C/c1ccc(O)cc1)CC2	0.0

QUERY: Field: outcome | Entry: Clc1nss/c1=N/c1nonc1-c1ccccc1
RESULT: 0.0

QUERY: Which result was noted for this molecule in the test: COc1cc(OC)c(OC)cc1/C=C/c1cnnc2ccccc12
RESULT: 0.0

QUERY: Any idea what this test logged for C=C(C)C12OC3(c4ccccc4)OC1C1C4OC4(CO)C(O)C4(O)C(=O)C(C)=CC4C1(O3)C(C)C2OC(=O)/C=C/C=C/c1ccccc1 (stereo not drawn) ?
RESULT: 1.0

###

Test system: MOLT-4
Experiment: NCI tumour cell line growth inhibition, 48 h
Calls of active or inactive are those of the source. Cut-off read from the data, not from the text of the source: active = GI50 up to about 1.1 µM and inactive = higher.
Hi there, I'd appreciate the recorded GI50 for every entry that follows.

Compound	Measured quantity	Observed
C[C@]12CC[C@@H]3c4ccc(O)cc4CC[C@H]3[C@@H]1C/C(=C\c1ccncc1)[C@@H]2O	GI50	3.6 µM (inactive)
CO/C(N)=C(C#N)/N=C/c1ccco1	GI50	> 100 µM (inactive)
COc1ccc(CCCN2c3ccccc3Sc3ccccc32)cc1	GI50	19.6 µM (inactive)
CCOC(=O)/C(C#N)=N\Nc1ccc(-n2c(C)nc3ccccc3c2=O)cc1	GI50	23.7 µM (inactive)
CC1(C)NC2C(=O)c3c([nH]c4ccccc34)[C@]3(C)CCC1CC23 (some centres not stated)	GI50	59.4 µM (inactive)

Batch lookup, GI50 per entry.
1. O=C(c1ccccn1)C1(N2CCCCC2)CCCCC1
2. O=S(=O)(O)c1cc2ccc1/C=C\c1ccc(cc1S(=O)(=O)O)/N=N\c1ccc(c(S(=O)(=O)O)c1)/C=C\c1ccc(cc1S(=O)(=O)O)/N=N\2

RESULT:
1. > 100 µM (inactive)
2. > 100 µM (inactive)

###

For each entry below, report its GI50 value.
Test system: TK-10
Experiment: NCI tumour cell line growth inhibition, 48 h
Activity calls are given as the source filed them. No stated cut-off is given here; in the data, active = GI50 up to about 1.1 µM and inactive = higher.

Compound	GI50
Cc1ccc(NC(=O)CSc2nc(C)nc3c2sc(=S)n3-c2ccccc2)cc1	> 10 µM (inactive)
COC(=O)C1Cc2cc3c(cc2C1=O)CCCC3 (stereo not given)	28 µM (inactive)
Cn1c2ccc3cc2c(=S)c2cc(ccc21)OCCOCCOCCOCCOCCOCCO3	> 10 µM (inactive)
O=C(O)C1CCc2ccc3ccccc3c2C1c1cccc2ccccc12 (stereo not given)	44.5 µM (inactive)
[O-][N+](CCO)(CCO)c1ncnc2[nH]cnc12	> 100 µM (inactive)
O=C1C2=C(c3ccccc31)C(c1cccc(Cl)c1)NC(S)=N2 (stereo not given)	> 100 µM (inactive)

Please report GI50 for every entry that follows.
1. O=c1c2c3c(sc2nc(S)n1-c1ccccc1)CCCc1ccc([N+](=O)[O-])cc1-3
2. COC(=O)C1=C(C)NC(C)=C(C(=O)OC)C1c1ccc(N=O)cc1
3. CCc1cc2c(cc1CCCC(=O)O)CC1(Cc3ccc(C(=O)O)cc3C1)C2 (stereo not given)
4. COC(=O)CC(=O)NCC1=CCC(=O)CC1

RESULT:
1. > 100 µM (inactive)
2. 15.4 µM (inactive)
3. > 100 µM (inactive)
4. > 100 µM (inactive)

Please give GI50 for each item listed below.
1. N#Cc1cc2c(cc1Cl)Sc1nccn1S2(=O)=O
2. CC(=O)CCCCn1c(=O)c2c(nc(Br)n2C)n(C)c1=O
3. Nc1ncnc2c1ccn2C/C=C\CO
4. CC1=COC(C)(C=C(C#N)C#N)CC1 (stereo not given)

RESULT:
1: 13.5 µM (inactive); 2: > 100 µM (inactive); 3: > 100 µM (inactive); 4: > 100 µM (inactive)

Give GI50 for each listed item.
1. O=C1Nc2ccccc2/C1=N/Nc1ncccc1[N+](=O)[O-]
2. O=C(c1ccccn1)c1nnn2ccccc12
3. COc1ccc(/C=C(\Cl)c2ccc(OC)cc2)cc1
4. CC(C)OC(=O)NNc1c(Cl)cc(Cl)cc1Cl
5. O=C1/C(=C/c2ccc(O)c([N+](=O)[O-])c2)CCC/C1=C\c1ccc(O)c([N+](=O)[O-])c1

RESULT:
1: 14.1 µM (inactive); 2: > 100 µM (inactive); 3: > 100 µM (inactive); 4: 37.7 µM (inactive); 5: 23.2 µM (inactive)

QUERY: Entry NCCSCCC(=O)O : reported GI50 = ?
RESULT: > 67.1 µM (inactive)

###

Tested on: HOP-18
Experiment: NCI tumour cell line growth inhibition, 48 h
Activity calls are given as the source filed them. Cut-off read from the data, not from the text of the source: active = GI50 up to about 1.1 µM and inactive = higher.
Field 'call' accepts active, inactive

Some entries whose results are on file:
Compound	Assayed target	Assigned category
CC1=NN(C(=O)c2cc(Cl)cc([N+](=O)[O-])c2)C(=O)C1/N=N/c1ccccc1C(=O)O (stereo not given)	HOP-18	inactive
CCOc1ccc(/N=N/c2c(-c3ccccc3)nn(C(=O)CC(=O)Nc3cccc(C)c3)c2-c2ccccc2)cc1	HOP-18	inactive
CCCCCCCCCCCCCC(=O)OCC1OC(=O)C(O)C1O (stereo not given)	HOP-18	inactive
Clc1ccc2c(c1)[nH]c1c2nc2sccn21	HOP-18	inactive
O=C1N2Cc3c4ccc5c3CN3C(=O)N6Cc7c(ccc(c7CN1C6(c1ccccc1)C23c1ccccc1)OCCOCCOc1cc(Br)c(Br)cc1OCCOCCO4)OCCOCCOc1cc(Br)c(Br)cc1OCCOCCO5 (stereo not given)	HOP-18	inactive
COc1ccc(CCCN2c3ccccc3Sc3ccccc32)cc1	HOP-18	inactive

Turning now to a further record.
QUERY: Per the assay record, what outcome was assigned to Cc1ccccc1OCC(COC(=O)Nc1ccccc1)OC(=O)Nc1ccccc1 (stereo not given) ?
RESULT: inactive

###

Tested on: LOX IMVI
Assay: NCI tumour cell line growth inhibition, 48 h
The source made the active and inactive calls. No stated cut-off is given here; in the data, active = GI50 up to about 1.1 µM and inactive = higher.
Use one of these outcomes when replying: active, inactive

Use these answered entries as a reference point.
Molecule	Assigned category
Nc1nnc2nc(CC(=O)/C=C/c3ccccc3)c(=O)[nH]n12	inactive
CN(C)c1nc(NC23CC4CC(CC(C4)C2)C3)nc(N(C)C)n1	inactive
CC1CNc2ccccc2N=C1NN (stereo not given)	inactive
CC12CCC(C(Br)(Br)C1=O)C2(C)C (stereo not given)	active

QUERY: GET /call?item= CC(C)n1c2c(c3ccccc3c1=O)C(=O)c1ccccc1-2 returns the recorded outcome of this test.
RESULT: inactive

QUERY: Fill in: this test's call for COc1cc(C(C)O)c(S(=O)(=O)CC(C)O)nn1 (stereo not given) is ___
RESULT: inactive

QUERY: Identify the outcome logged in this assay for the molecule shown: COc1ccc(OCc2nc3cc(C(F)(F)F)ccc3nc2-c2ccccc2)cc1
RESULT: inactive

QUERY: Could you check what this test reported for CC1Oc2c(c(=O)oc3ccccc23)[C@@]1(C)CC1C[C@H](C)C(=O)O1 (stereo not given in full) ?
RESULT: inactive

QUERY: Which outcome was entered for the molecule Cc1cccc(N2C(=O)C3ON(C(C(N)=O)c4ccccc4)C(c4c5ccccc5c(Cl)c5ccccc45)C3C2=O)c1C (stereo not given) in this test?
RESULT: inactive

QUERY: Just curious, what result did O=C(O)C1=NN(c2ccc(S(=O)(=O)O)cc2)C2(C1)C(Cl)C(=O)N2c1nc2ccccc2s1 (stereo not given) get here?
RESULT: inactive

QUERY: Hi team, can someone confirm the assay call for O=c1[nH]nc(Cc2ccccc2)n1/N=C/c1c(O)ccc2ccccc12 ?
RESULT: inactive

QUERY: How was CC(C)C(NCc1c2ccccc2[n+](C)c2ccccc12)C(=O)O (stereo not given) classified in this test?
RESULT: inactive

QUERY: Could you check what this test reported for Cc1ccc(S(=O)(=O)n2cc(/C=C/C#N)c(-c3cn(S(=O)(=O)c4ccc(C)cc4)cc3-c3cn(S(=O)(=O)c4ccc(C)cc4)cc3/C=C/C#N)c2)cc1 ?
RESULT: inactive

QUERY: What outcome does the record of this test show for [N-]=[N+]=CC(=O)OCC1NC(=O)C(COC(=O)C=[N+]=[N-])NC1=O (stereo not given) ?
RESULT: inactive

QUERY: Recorded test outcome, item COC(=O)c1cc2c3ccccc3n(C(C)=O)c2cn1
RESULT: inactive

QUERY: // return assay outcome for COc1ccc(N[S+]([O-])c2ccccc2OC)cc1 (stereo not given)
RESULT: inactive

QUERY: Query: recorded result category for CC(=O)NNc1nc(-c2ccc([N+](=O)[O-])cc2)c(C#N)c(=O)n1C in this test
RESULT: inactive

QUERY: Give the logged outcome of this assay for the following molecule: CCC1(Cl)C(=O)NC(=O)N(C2CC(O)C(CO)O2)C1N=[N+]=[N-] (stereo not given)
RESULT: inactive

QUERY: Given O=C(Nc1c(-c2nc3ccccc3[nH]2)sc(=S)n1-c1ccccc1)c1ccccc1 , state the outcome it received in this test.
RESULT: inactive

QUERY: Check the results log: what was the call for CC(=O)OC1C(O)C(C)OC(OC2C(OC(=O)C3CCC4C(C3)OC3(CC(OC(=O)/C=C/c5ccccc5)C(C)CO3)C43CO3)OC(C)C(O)C2OC(C)=O)C1O (stereo not given) ?
RESULT: active

QUERY: I'd appreciate the recorded outcome for O=NN(CCCl)C(=O)NCc1ccc[n+]([O-])c1 from this test.
RESULT: inactive

QUERY: For CCOc1ccc(/N=N/c2c(-c3ccccc3)nn(C(=O)CC(=O)Nc3cccc(C)c3)c2-c2ccccc2)cc1 , which call appears in the assay record?
RESULT: inactive
